# study-target: Bifunctional protein GlmU (Mycobacterium tuberculosis (strain ATCC 25618 / H37Rv))
# procedure-summary: inhibition of mycobacterial GlmU enzyme – biochemical, glucosamine-1-phosphate acetyltransferase (AID 1376);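 note: 0% = complete reaction with vehicle and 100% = reaction without substrate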
# conditions: M. tuberculosis GlmU acetyltransferase enzyme assay;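 tested at 30 µM in the primary screen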
Among all 220,000 compounds or so, about 530 (0.24%) were called active. Cut-off read from the data, not from the text of the source: active = inhibition above about 13%; inconclusive = no clear call, values can overlap the other calls; inactive = below that. The full list was thinned out, with actives kept by preference. Potency and affinity values are given separately.
Would you mind answering with one of these outcomes? label 1 = active, label 0 = inactive

COc1cccc(C(=O)Cn2c(=N)n(C)c3ccccc32)c1	label 1

Input: Test call for this molecule, please: Cn1c(=N)n(CC(=O)c2ccccc2)c2ccccc21
Output: label 0

Input: Field: outcome | Entry: O=[n+]1c2c(n([O-])c3c1CCC3)CCCC2
Output: label 0

Input: What was the test verdict on O=C(CC1Sc2ccccc2NC1=O)Nc1cccc(C(=O)O)c1 (configuration not stated) ?
Output: label 0
